Target: Drosophila OR10a (Drosophila melanogaster, UniProt Q9VYZ1)
Construct: expressed in transfected cells
Sequence (Q9VYZ1 1-406): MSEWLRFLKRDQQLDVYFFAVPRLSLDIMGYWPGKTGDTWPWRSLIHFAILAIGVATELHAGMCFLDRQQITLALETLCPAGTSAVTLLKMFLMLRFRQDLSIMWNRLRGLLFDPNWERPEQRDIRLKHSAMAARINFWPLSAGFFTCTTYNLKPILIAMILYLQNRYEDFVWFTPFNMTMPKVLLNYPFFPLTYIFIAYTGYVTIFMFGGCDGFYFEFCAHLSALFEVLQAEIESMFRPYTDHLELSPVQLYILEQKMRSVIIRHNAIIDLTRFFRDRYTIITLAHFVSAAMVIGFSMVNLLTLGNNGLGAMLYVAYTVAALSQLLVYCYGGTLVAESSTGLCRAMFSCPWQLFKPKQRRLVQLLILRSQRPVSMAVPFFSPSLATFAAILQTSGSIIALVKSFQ
Sequence (Q9VNB5 1-486 partner): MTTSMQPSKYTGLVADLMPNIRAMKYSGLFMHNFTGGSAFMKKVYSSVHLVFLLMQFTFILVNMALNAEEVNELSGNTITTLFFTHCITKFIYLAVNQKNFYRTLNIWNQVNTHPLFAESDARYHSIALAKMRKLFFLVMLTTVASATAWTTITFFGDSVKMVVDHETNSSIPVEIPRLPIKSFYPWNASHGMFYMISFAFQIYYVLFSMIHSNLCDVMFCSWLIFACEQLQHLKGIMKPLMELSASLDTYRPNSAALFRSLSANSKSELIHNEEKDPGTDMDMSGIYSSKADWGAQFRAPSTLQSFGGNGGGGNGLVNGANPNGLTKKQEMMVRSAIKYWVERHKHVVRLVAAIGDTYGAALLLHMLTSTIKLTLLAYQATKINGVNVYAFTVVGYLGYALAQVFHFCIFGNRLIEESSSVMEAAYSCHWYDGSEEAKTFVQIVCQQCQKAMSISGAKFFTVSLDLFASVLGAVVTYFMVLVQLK
Test: cell-based
Parameters: GCaMP6 calcium fluorescence in stable HEK293 OR+ORCO lines; peak dF normalised to 50 uM VUAA1 (=1)
Details: HEK293; relative to 50 uM VUAA1 response; below 0.05 set to 0; read-out: % activation
reported endpoint: activity at 10 µM

Worked examples follow.
> print(dat)
                                   compound                         target.under.test  measured.value
1  C=C(C)C1CCC2(C)OC2C1 (single isomer, unassigned; (+)) [(+)-limonene oxide]  Drosophila OR10a (Drosophila melanogaster, UniProt Q9VYZ1)              0%
2  C=C1CC[C@@]23C[C@@H]1C(C)(C)[C@@H]2CC[C@H]3C [(+)-beta-cedrene]  Drosophila OR10a (Drosophila melanogaster, UniProt Q9VYZ1)              0%
3  CC1=CCC[C@@]2(C)[C@@H]3CC[C@]12CC3(C)C [(−)-α-neoclovene]  Drosophila OR10a (Drosophila melanogaster, UniProt Q9VYZ1)           13.1%

Here is the next item to consider.
Record C=C1[C@H]2CC[C@@H]3[C@H]2C(C)(C)CCC[C@]13C [(+)-longifolene] , field activity at 10 µM: 5.37%

====

target: Drosophila OR49b (Drosophila melanogaster, UniProt Q9V6H2); construct: expressed in transfected cells; assay: cell-based; details: OR49b cell line; odorant cc. 100 µM; mean of biological replicates
Sequence (Q9V6H2 whole entry, one chain of several): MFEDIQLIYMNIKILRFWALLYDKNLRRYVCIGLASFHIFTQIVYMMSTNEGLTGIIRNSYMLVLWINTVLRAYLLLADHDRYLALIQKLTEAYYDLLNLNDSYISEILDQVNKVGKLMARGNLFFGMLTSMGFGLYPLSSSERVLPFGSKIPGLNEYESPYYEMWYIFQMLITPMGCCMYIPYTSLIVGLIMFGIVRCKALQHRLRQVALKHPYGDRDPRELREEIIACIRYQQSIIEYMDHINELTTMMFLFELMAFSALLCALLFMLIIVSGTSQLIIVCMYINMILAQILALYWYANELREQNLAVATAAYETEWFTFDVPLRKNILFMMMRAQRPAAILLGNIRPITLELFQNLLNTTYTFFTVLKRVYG
Below, each entry is listed alongside its reported Average response.
Answer with the value's number alone.

Worked examples follow.
> print(dat)
                  compound  measured.value
1   CCCCCCCCCCC [undecane]          0.0367
2  CCCCC(C)=O [2-hexanone]            0.00

Here is the next item to consider.
Record Cc1ccc(O)cc1 [4-methylphenol] , field Average response: 0.44

// data source = paper PMC10709440
